Sequence of the target: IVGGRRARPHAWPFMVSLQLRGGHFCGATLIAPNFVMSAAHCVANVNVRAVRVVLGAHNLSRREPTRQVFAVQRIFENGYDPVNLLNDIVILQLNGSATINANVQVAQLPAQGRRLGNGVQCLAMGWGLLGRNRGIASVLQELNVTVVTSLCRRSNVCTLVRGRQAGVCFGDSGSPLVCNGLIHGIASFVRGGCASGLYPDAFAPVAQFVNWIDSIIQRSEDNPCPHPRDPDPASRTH
experimental endpoint: pKi
# log scale: pKi equals minus log10 of the concentration in mol/L

For the compound `CC(C)C[C@H](NC(=O)[C@H](CC(C)C)NC(=O)[C@H](CC(C)C)NC(=O)OCc1ccccc1)B(O)O` , give its measured pKi value.
7.82
